molecular target: Guanidinoacetate N-methyltransferase (Homo sapiens) (UniProt Q14353); assay: Confirmatory Screen for Target Class Profiling of Small Molecule Inhibitors of Methyltransferases (AID 1745852); conditions: MTase-Glo luminescence, SAH detection, recombinant enzyme; at 57.3 µM (top of the series)
The label depends only on activity change, negative = inhibition: Fulfilled if it is at least 4%, Not fulfilled if it is smaller.

- TEST SMILES: "CCC(=O)c1ccc2c(c1)N(CCCN(C)C)c1ccccc1S2"
  CLASS ASSIGNMENT: "Fulfilled"
- TEST SMILES: "COc1cc(C(=O)OCCCN2CCCN(CCCOC(=O)c3cc(OC)c(OC)c(OC)c3)CC2)cc(OC)c1OC"
  CLASS ASSIGNMENT: "Fulfilled"
- TEST SMILES: "CN(C)CC[C@@H](c1ccc(Br)cc1)c1ccccn1"
  CLASS ASSIGNMENT: "Not fulfilled"
- TEST SMILES: "NC(N)=N/N=C/c1c(Cl)cccc1Cl"
  CLASS ASSIGNMENT: "Not fulfilled"
- TEST SMILES: "CN(C)[C@@H]1C(=O)C(C(N)=O)=C(O)[C@@]2(O)C(=O)C3=C(O)c4c(O)ccc(Cl)c4[C@@H](O)[C@H]3C[C@@H]12"
  CLASS ASSIGNMENT: "Fulfilled"
- TEST SMILES: "COC(=O)[C@@H](N)Cc1ccc(O)c(O)c1"
  CLASS ASSIGNMENT: "Not fulfilled"

Now for another entry.
Threshold query (activity change, negative = inhibition >= 4%) on `CCCN(CCC)CCc1cccc2c1CC(=O)N2`
Fulfilled
